EXPERIMENTAL TARGET: T1, human LAG-3 on cells (HEK293-hLAG-3 stable cell line) (human, UniProt P18627 23-525)
T1 sequence: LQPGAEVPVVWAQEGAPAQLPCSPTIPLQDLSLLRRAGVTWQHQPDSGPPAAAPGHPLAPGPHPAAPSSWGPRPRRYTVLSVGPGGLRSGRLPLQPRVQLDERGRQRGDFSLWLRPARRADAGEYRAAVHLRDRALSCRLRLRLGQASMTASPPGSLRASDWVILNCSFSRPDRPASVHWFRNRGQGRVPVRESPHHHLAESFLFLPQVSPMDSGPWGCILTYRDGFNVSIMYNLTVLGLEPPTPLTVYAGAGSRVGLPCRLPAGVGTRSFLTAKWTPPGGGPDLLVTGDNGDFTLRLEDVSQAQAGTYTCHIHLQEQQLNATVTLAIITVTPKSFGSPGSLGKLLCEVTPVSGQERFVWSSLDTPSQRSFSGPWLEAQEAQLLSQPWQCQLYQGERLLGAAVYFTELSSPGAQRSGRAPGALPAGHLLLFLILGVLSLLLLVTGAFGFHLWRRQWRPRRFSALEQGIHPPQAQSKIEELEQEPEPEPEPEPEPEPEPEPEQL
TEST PROTOCOL: FACS, HEK293-hLAG-3, antibody 40.000 nM

BINDER	Mean fluorescence intensity
409B11E12 mouse-human chimeric antibody (antibody, V domains shown, also called mAb104-409B11E12) VH: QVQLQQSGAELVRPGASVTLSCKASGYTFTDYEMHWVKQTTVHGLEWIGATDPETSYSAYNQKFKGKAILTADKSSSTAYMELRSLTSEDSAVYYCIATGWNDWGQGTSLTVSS VL: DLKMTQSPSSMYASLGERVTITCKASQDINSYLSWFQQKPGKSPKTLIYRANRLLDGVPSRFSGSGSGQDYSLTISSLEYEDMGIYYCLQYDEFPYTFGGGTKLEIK	150
